Here the recorded koff is given for each entry.
# experimental system: hCLEC12A-His fusion protein (human) (UniProt Q5QGZ9)
# Sequence (Q5QGZ9 65-265 limits assumed): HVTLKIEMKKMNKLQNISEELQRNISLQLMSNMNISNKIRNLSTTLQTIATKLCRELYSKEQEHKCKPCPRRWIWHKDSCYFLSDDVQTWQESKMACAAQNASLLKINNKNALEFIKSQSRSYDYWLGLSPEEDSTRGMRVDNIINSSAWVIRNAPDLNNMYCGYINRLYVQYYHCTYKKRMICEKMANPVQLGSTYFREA
# experiment description: SPR screening, semi-purified protein
Just the number in s⁻¹, nothing appended.

INSERT INTO measurements (binder, obs_value) VALUES
  ('F3′-1296 (bispecific antibody, part only; not given: Fc and unrelated binding arm, not shown: another chain or arm of the molecule; a dimerising Fc or GST) scFv: QLQLQESGPGLVKPSETLSLTCTVSGFSLTNYGLHWIRQPPGKCLEWIGVIWSGGKTDYNPSLKSRVTISKDTSKNQFSLKLSSVQANDTAVYYCARYDYDDSLDYWGQGTLVTVSSGGGGSGGGGSGGGGSGGGGSDIQMTQSPSSLSASVGDRVTITCHASQNINFWLSWYQQKPGKIPKLLIYEASNLHTGVPSRFSGSGSGTRFTLTISSLQPEDIATYYCQQSHSYPLTFGCGTKLEIK', 0.00117),
  ('AB0191 (bispecific antibody, part only; not given: Fc, unrelated binder arm, linkers, not shown: another chain or arm of the molecule; a dimerising Fc or GST; small tags and cut ends) scFv: EVQLVESGGGVVQPGGSLRLSCAASGFTFNSFGMHWVRQAPGKCLEWVAFISSGSTSIYYANTVKGRFTISRDNSKNTLYLQMNSLRAEDTAVYYCARDGYPTGGAMDYWGQGTSVTVSSGGGGSGGGGSGGGGSGGGGSDIQMTQSPSSLSASVGDRVTITCKASQDIYNYLSWFQQKPGKAPKPLIYRANILVSGVPSRFSGSGSGQDYTFTISSLQPEDIATYYCLQFDAFPFTFGCGTKLEIK', 0.00126),
  ('AB0195 (bispecific antibody, part only; not given: Fc and unrelated binding arm, not shown: another chain or arm of the molecule; a dimerising Fc or GST) scFv: EVQLVESGGGVVQPGGSLRLSCAASGFTFNAFGMHWVRQAPGKCLEWVAFISSGSTSIYYANTVKGRFTISRDNSKNTLYLQMNSLRAEDTAVYYCARDGYPTGGAMDYWGQGTSVTVSSGGGGSGGGGSGGGGSGGGGSDIKMTQSPSSLSASVGDRVTITCKASQDIYNYLSWFQQKPGKAPKPLIYRANILVSGVPSRFSGSGSGQDYTLTISSLQPEDIATYYCLQFDAFPFTFGCGTKLEIK', 0.00129),
  ('F3′-1306 (bispecific antibody, part only; not given: Fc and unrelated binding arm, not shown: another chain or arm of the molecule; a dimerising Fc or GST; small tags and cut ends) scFv: DIQMTQSPSSLSASVGDRVTITCHASQNINFWLSWYQQKPGKAPKLLIYEASNLHTGVPSRFSGSGSGTRFTLTISSLQPEDIATYYCQQSHSYPLTFGCGTKLEIKGGGGSGGGGSGGGGSGGGGSQLQLQESGPGLVKPSETLSLTCTVSGFSLTNYGLHWIRQPPGKCLEWIGVIWSGGKTDYNPSLKSRVTISKDTSKNQFSLKLSSVQANDTAVYYCAKYDYDDSLDYWGQGTLVTVSS', 0.0489),
  ('AB0185 (bispecific antibody, part only; not given: Fc, unrelated binder arm, linkers, not shown: another chain or arm of the molecule; a dimerising Fc or GST; small tags and cut ends) scFv: DIQMTQSPSSLSASVGDRVTITCKASQDIYNYLSWFQQKPGKAPKPLIYRANILVSGVPSRFSGSGSGQDYTFTISSLQPEDIATYYCLQFDAFPFTFGCGTKLEIKGGGGSGGGGSGGGGSGGGGSEVQLVESGGGVVQPGGSLRLSCAASGFTFNSFGMHWVRQAPGKCLEWVAFISSGSTSIYYANTVKGRFTISRDNSKNTLYLQMNSLRAEDTAVYYCARDGYPTGGAMDYWGQGTSVTVSS', 0.00101);

Now for the binder whose koff we want.
Data request, read-out koff, for F3′-1297 (bispecific antibody, part only; not given: Fc and unrelated binding arm, not shown: another chain or arm of the molecule; a dimerising Fc or GST; small tags and cut ends) scFv: QLQLQESGPGLVKPSETLSLTCTVSGFSLTNYGLHWIRQPPGKCLEWIGVIWSGGKTDYNPSLKSRVTISKDTSKNQFSLKLSSVQANDTAVYYCAKYDYDDSLDYWGQGTLVTVSSGGGGSGGGGSGGGGSGGGGSDIQMTQSPSSLSASVGDRVTITCHASQNINFWLSWYQQKPGKAPKLLIYEASNLHTGVPSRFSGSGSGTRFTLTISSLQPEDIATYYCQQSHSYPLTFGCGTKLEIK 0.00141

Source listed as patent US20230220084A1.
